Examples of compounds with documented Ki follow.
Target: S2R (Rattus norvegicus, UniProt Q5U3Y7)
Construct: from tissue; host or cells: rat liver homogenate (male Sprague-Dawley)
Sequence (Q5U3Y7 1-176): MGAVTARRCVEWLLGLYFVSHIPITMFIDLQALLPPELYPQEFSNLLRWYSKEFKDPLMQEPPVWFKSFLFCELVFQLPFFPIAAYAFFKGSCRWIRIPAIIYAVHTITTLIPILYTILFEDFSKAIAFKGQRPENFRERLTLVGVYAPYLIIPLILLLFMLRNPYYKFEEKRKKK
Assay: S2R radioligand binding assay, [3H]DTG with (+)-pentazocine as S1R masking agent, liver homogenates
Set-up: species or system male Sprague-Dawley rats
Details: read-out: Ki (nM) ± SD S2R
Provide only the numeric value, understood in nM.

In the examples that follow, each entry is paired with its recorded Ki.
compound=c1ccc(CCN2CC3(CCN(c4ccccc4)CC3)C2)cc1 endpoint_name=Ki observed_measurement=77
compound="c1ccc(CCCN2CCCC3CN(CCc4ccccc4)CC32)cc1 (stereo not drawn)" endpoint_name=Ki observed_measurement=1030

Next compound, Ki to be filled in.
Query string: Tell me Ki of c1ccc(CCN2CCCC3CN(c4ccccc4)CC32)cc1 (stereo not drawn) when tested on S2R (Rattus norvegicus, UniProt Q5U3Y7).
Result string: 279

* * *

Target: S2R (Rattus norvegicus, UniProt Q5U3Y7)
Construct: from tissue; host or cells: rat liver homogenate (male Sprague-Dawley)
Assay: S2R radioligand binding assay, [3H]DTG with (+)-pentazocine as S1R masking agent, liver homogenates
Set-up: species or system male Sprague-Dawley rats
Details: read-out: Ki (nM) ± SD S2R
Each record here notes measured Ki.
Record the value in nM, omitting the unit from your answer.

See these solved cases before continuing.
molecule="c1ccc(CCN2CC3(CCN(Cc4ccccc4)CC3)C2)cc1 [4b]" readout_units=nM observed_measurement=27
molecule="O=C(c1ccccc1)N1CCC2(CC1)CN(CCc1ccccc1)C2 [5a]" readout_units=nM observed_measurement=255
molecule="O=C(Cc1ccccc1)N1CCC2(CC1)CN(CCc1ccccc1)C2 [5b]" readout_units=nM observed_measurement=102
molecule="c1ccc(CCCN2CC3(CCN(c4ccccc4)CC3)C2)cc1 [4d]" readout_units=nM observed_measurement=51
molecule="c1ccc(CCN2CCCC3CN(Cc4ccccc4)CC32)cc1 (stereo not drawn) [8c]" readout_units=nM observed_measurement=126

Kindly review the next molecule as well.
Query string: Return reported Ki. Input molecule: c1ccc(CCCN2CC3(CCN(Cc4ccccc4)CC3)C2)cc1 [4e]
Result string: 31

* * *

In this section, each of the molecules is paired with its reported KiS2R/KiS1R (preference for S1R over S2R).
Molecular target: S1R (Rattus norvegicus)
Sequence (Q9R0C9 whole entry): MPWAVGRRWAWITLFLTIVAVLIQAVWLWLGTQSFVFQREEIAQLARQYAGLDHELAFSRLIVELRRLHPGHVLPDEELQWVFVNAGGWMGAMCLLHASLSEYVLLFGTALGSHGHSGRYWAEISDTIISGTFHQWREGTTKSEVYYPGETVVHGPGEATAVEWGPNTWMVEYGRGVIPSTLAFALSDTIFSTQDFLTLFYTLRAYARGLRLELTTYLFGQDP
Experiment: S1R radioligand binding assay, [3H](+)-pentazocine, liver homogenates
Set-up: from tissue; host or cells: rat liver homogenate (male Sprague-Dawley); species or system male Sprague-Dawley rats
Conditions: ratio of S2R Ki to S1R Ki
Write no unit; give the number alone.

molecule="c1ccc(CCN2CCCC3CN(c4ccccc4)CC32)cc1 (stereo not drawn) [8b]" observed_measurement=0.6
molecule="c1ccc(CCCN2CC3(CCN(Cc4ccccc4)CC3)C2)cc1 [4e]" observed_measurement=4.3

Now look at this one.
Query string: Supply reported KiS2R/KiS1R (preference for S1R over S2R) belonging to this molecule: c1ccc(CCCN2CCCC3CN(CCc4ccccc4)CC32)cc1 (stereo not drawn) [8g]
Result string: 1.4
